Values were extracted from the RNAGym collection of RNA variant scans (doi:10.1038/s41586-018-0170-7).

B1: tRNA (parent)
chain: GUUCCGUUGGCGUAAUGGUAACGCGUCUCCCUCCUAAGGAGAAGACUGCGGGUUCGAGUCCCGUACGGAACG

Variants of: B1
Experiment: yeast fitness, log relative to wild type (ln ratio); higher = fitter; tRNA-Arg(CCU), competitive growth, 37 C, 1 M NaCl
ENDPOINT NAME: yeast fitness (ln)
Give bare numbers.

Some variants with recorded yeast fitness (ln):
Task: Reported yeast fitness (ln) for G1A U2G G6A C46U C66U A70U : what is it?
Output: -0.251

Task: Same read-out for G1A G6U A43C C46U C66A A70G ?
Output: -0.17

Task: Same read-out for G6A A43C C46U C66U A69G A70G ?
Output: -0.233

Task: Same read-out for U2C G6U C27U A43C C66U A70U ?
Output: -0.156

Task: Same read-out for G1A G6A A43C C66U ?
Output: -0.195

Task: Same read-out for G1A G6A C46U C66U A70G ?
Output: -0.189

Task: Same read-out for G1A U2G C46U C66A A70U C71U ?
Output: -0.152

Task: Same read-out for G6A C27U A43C C46U C66A ?
Output: -0.269

Please state yeast fitness (ln) for every variant in the list that follows.
1. G1A U2C C27U C46U A70G
2. G1A U2G G6U C27U A43C C66A
3. G6U A43C C66A C71U

Output:
-0.0417
-0.171
-0.177

Please state yeast fitness (ln) for every variant in the list that follows.
1. U2G G6A C27U C46U A69G
2. G1A C27U A43C A69G A70G
3. G1A G6A C27U A43C C46U C66U A70U C71U
4. G6A C46U C66A A69G A70U
5. G6U A43C C46U C66U A70G

Output:
1: -0.149; 2: -0.303; 3: -0.413; 4: -0.178; 5: -0.205
